Overview of recorded selectivity ratio for various compounds
Experiment: Selectivity index, ratio of cytotoxicity against human KB cells to IC50 for Cryptococcus neoformans ATCC 90113
Assay type: toxicity, cell-based
Details: read-out: Selectivity Index
value.kind: selectivity ratio

>>> measured("N[C@@H](Cc1c[nH]c2ccccc12)C(=O)N[C@@H](Cc1c[nH]c(-c2ccccc2)n1)C(=O)NCc1ccccc1")
"> 4.9"
>>> measured("COC(=O)[C@H](CCCNC(=N)N)NC(=O)[C@@H](N)Cc1c[nH]c(-c2cccc3ccccc23)n1")
"> 7.3"
>>> measured("Cc1ccc(-c2nc(C[C@H](NC(=O)OC(C)(C)C)C(=O)N[C@@H](CCCNC(=N)N)C(=O)NCc3ccccc3)c[nH]2)cc1")
"> 1.7"
>>> measured("N=C(N)NCCC[C@H](NC(=O)[C@@H](N)Cc1c[nH]c(-c2cccc3ccccc23)n1)C(=O)NCc1ccccc1")
"> 16.1"
>>> measured("CC(C)(C)OC(=O)N[C@@H](Cc1c[nH]c(-c2ccccc2)n1)C(=O)N[C@@H](CCCNC(=N)N)C(=O)NCc1ccccc1")
"> 3.9"
>>> measured("CC(C)(C)c1ccc(-c2nc(C[C@H](NC(=O)[C@@H](N)Cc3c[nH]c4ccccc34)C(=O)NCc3ccccc3)c[nH]2)cc1")
"> 2.21"
>>> measured("COc1ccc(-c2nc(C[C@H](NC(=O)OC(C)(C)C)C(=O)N[C@@H](CCCNC(=N)N)C(=O)NCc3ccccc3)c[nH]2)cc1")
"> 1.7"
>>> measured("CC(C)(C)c1ccc(-c2nc(C[C@H](N)C(=O)N[C@@H](CCCNC(=N)N)C(=O)NCc3ccccc3)c[nH]2)cc1")
"> 62.5"
>>> measured("Cc1ccc(-c2nc(C[C@H](NC(=O)[C@@H](N)Cc3c[nH]c4ccccc34)C(=O)NCc3ccccc3)c[nH]2)cc1")
"> 1.3"
>>> measured("N[C@@H](Cc1c[nH]c2ccccc12)C(=O)N[C@@H](Cc1c[nH]c(-c2ccc(-c3ccccc3)cc2)n1)C(=O)NCc1ccccc1")
"> 18.5"
>>> measured("COC(=O)[C@H](CCCNC(=N)N)NC(=O)[C@H](Cc1c[nH]c(-c2ccc(-c3ccccc3)cc2)n1)NC(=O)OC(C)(C)C")
"> 2"
>>> measured("COC(=O)[C@H](CCCNC(=N)N)NC(=O)[C@@H](N)Cc1c[nH]c(-c2ccc(-c3ccccc3)cc2)n1")
"> 1.8"
>>> measured("CC(C)(C)OC(=O)N[C@@H](Cc1c[nH]c(-c2ccc(C(C)(C)C)cc2)n1)C(=O)N[C@@H](CCCNC(=N)N)C(=O)NCc1ccccc1")
"> 4.1"
>>> measured("COC(=O)[C@H](Cc1c[nH]c(-c2ccccc2)n1)NC(=O)[C@@H](N)Cc1c[nH]c2ccccc12")
"> 1.3"
>>> measured("CC(C)(C)OC(=O)N[C@@H](Cc1c[nH]c(-c2ccc(-c3ccccc3)cc2)n1)C(=O)N[C@@H](CCCNC(=N)N)C(=O)NCc1ccccc1")
"> 9.2"
>>> measured("N=C(N)NCCC[C@H](NC(=O)[C@@H](N)Cc1c[nH]c(-c2ccc(-c3ccccc3)cc2)n1)C(=O)NCc1ccccc1")
"> 50"
>>> measured("CC(C)(C)OC(=O)N[C@@H](Cc1c[nH]c(-c2cccc3ccccc23)n1)C(=O)N[C@@H](CCCNC(=N)N)C(=O)NCc1ccccc1")
"> 3.6"
>>> measured("COC(=O)[C@H](Cc1c[nH]c(-c2ccc(-c3ccccc3)cc2)n1)NC(=O)[C@@H](N)Cc1c[nH]c2ccccc12")
"> 2.6"
>>> measured("COC(=O)[C@H](CCCNC(=N)N)NC(=O)[C@H](Cc1c[nH]c(-c2cccc3ccccc23)n1)NC(=O)OC(C)(C)C")
"> 8"
>>> measured("Cc1ccc(-c2nc(C[C@H](N)C(=O)N[C@@H](CCCNC(=N)N)C(=O)NCc3ccccc3)c[nH]2)cc1")
"> 4.7"
>>> measured("N=C(N)NCCC[C@H](NC(=O)[C@@H](N)Cc1c[nH]c(-c2ccccc2)n1)C(=O)NCc1ccccc1")
"> 8.2"
